System Name: Cellular tumor antigen p53 (Homo sapiens)
Test Name: ATG_p53_CIS: Attagene CIS-FACTORIAL HepG2 Assay for human p53 Transcription Factor (AID 2282994)
Study Conditions: HepG2 p53 cis-element reporter, Attagene mRNA; actives raise or lower the signal
Description: ATG_CIS is a cell-based, multiplexed-readout assay that uses HepG2, a human liver cell line, with measurements taken at 24 hours after chemical dosing in a 24-well plate.ATG_p53_CIS is one of 52 assay component(s) measured or calculated from the ATG_CIS assay. […] This assay endpoint, ATG_p53_CIS, was analyzed with bidirectional fitting relative to DMSO as the negative control and baseline of activity. […]
Activity calls are given as the source filed them. Rule for the calls: active = hit-call score of the fitted dose curve at least 0.9, where 1 is the maximum; inactive = score below 0.9.
Possible outcomes: active, inactive

[[record]]
smiles_text = "Oc1ccc2c(c1)CCC2"
class_label = "inactive"

[[record]]
smiles_text = "Nc1cccnc1N"
class_label = "inactive"

[[record]]
smiles_text = "O=C=NCc1cccc(CN=C=O)c1"
class_label = "inactive"

[[record]]
smiles_text = "OC(O)C(F)(F)C(F)(F)F"
class_label = "active"

[[record]]
smiles_text = "OCCCCl"
class_label = "inactive"

[[record]]
smiles_text = "Cc1cccc(C)n1"
class_label = "inactive"

[[record]]
smiles_text = "CCN=c1cc2oc3cc(NCC)c(C)cc3c(-c3ccccc3C(=O)OCC)c-2cc1C"
class_label = "active"

[[record]]
smiles_text = "OCCCc1cccnc1"
class_label = "inactive"


----------
Test Name: CCTE_Padilla_ZF_Score.Position: CCTE's 144 Hour Post-fertilization zebrafish Assay Score for Position, Padilla Lab (AID 2284409)
Activity calls are given as the source filed them. The calls were made as follows: active = hit-call score of the fitted dose curve at least 0.9, where 1 is the maximum; inactive = score below 0.9.
Outcomes: T (active), F (inactive)

[[record]]
smiles_text = "O=C(O)C(F)(F)C(F)(F)C(F)(F)C(F)(F)C(F)(F)C(F)(F)C(F)F"
class_label = "F"

[[record]]
smiles_text = "O=C(O)C(F)(F)C(F)(F)C(F)(F)C(=O)O"
class_label = "F"

[[record]]
smiles_text = "NCC(F)(F)C(F)(F)C(F)(F)C(F)(F)C(F)(F)C(F)(F)F"
class_label = "F"

[[record]]
smiles_text = "O=S(=O)(O)CCC(F)(F)C(F)(F)C(F)(F)C(F)(F)C(F)(F)C(F)(F)C(F)(F)C(F)(F)F"
class_label = "F"

[[record]]
smiles_text = "NC(=O)C(F)(F)C(F)(F)C(F)(F)C(F)(F)C(N)=O"
class_label = "F"

[[record]]
smiles_text = "NC(O)(C(F)(F)F)C(F)(F)F"
class_label = "F"

[[record]]
smiles_text = "NC(=O)C(F)(F)C(F)(F)C(F)(F)C(F)(F)C(F)(F)C(F)(F)C(F)(F)F"
class_label = "F"

[[record]]
smiles_text = "O=S(=O)(Cl)C(F)(F)C(F)(F)C(F)(F)C(F)(F)C(F)(F)C(F)(F)C(F)(F)C(F)(F)F"
class_label = "T"

[[record]]
smiles_text = "O=C(O)C(F)(F)C(F)(F)C(F)(F)OC(F)(C(F)(F)F)C(F)(F)F"
class_label = "F"

[[record]]
smiles_text = "CO[Si](C)(CCC(F)(F)C(F)(F)C(F)(F)C(F)(F)C(F)(F)C(F)(F)F)OC"
class_label = "F"


----------
System Name: Aryl hydrocarbon receptor (Homo sapiens) (UniProt P35869)
Sequence (P35869 whole entry, looked up): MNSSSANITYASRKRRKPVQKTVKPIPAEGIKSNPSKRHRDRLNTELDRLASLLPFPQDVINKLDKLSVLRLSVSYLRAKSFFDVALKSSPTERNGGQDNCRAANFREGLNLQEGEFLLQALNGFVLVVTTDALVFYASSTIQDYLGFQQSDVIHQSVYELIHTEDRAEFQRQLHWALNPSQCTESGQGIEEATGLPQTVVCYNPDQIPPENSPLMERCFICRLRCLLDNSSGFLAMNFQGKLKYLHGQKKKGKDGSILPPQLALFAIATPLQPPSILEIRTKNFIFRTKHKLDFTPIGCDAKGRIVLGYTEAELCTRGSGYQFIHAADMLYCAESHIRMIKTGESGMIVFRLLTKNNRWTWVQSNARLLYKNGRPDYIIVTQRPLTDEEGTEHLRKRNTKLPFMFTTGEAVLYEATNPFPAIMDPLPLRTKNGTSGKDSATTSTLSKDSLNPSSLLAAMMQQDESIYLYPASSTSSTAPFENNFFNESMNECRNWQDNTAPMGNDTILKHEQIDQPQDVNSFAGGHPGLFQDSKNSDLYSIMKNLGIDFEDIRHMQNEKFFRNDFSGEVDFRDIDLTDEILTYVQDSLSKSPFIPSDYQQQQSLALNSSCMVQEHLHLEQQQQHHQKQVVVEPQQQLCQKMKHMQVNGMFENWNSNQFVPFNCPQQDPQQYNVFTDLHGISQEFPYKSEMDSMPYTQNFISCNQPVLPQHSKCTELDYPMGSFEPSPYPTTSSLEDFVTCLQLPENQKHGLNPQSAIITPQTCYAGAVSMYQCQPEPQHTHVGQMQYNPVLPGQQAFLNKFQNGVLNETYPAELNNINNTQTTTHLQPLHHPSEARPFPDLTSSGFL
Test Name: ATG_Ahr_CIS: Attagene CIS-FACTORIAL HepG2 Assay for human Aryl Hydrocarbon Receptor (Ahr) (AID 2282930)
Study Conditions: HepG2 AhR cis-factorial reporter transcription; actives raise or lower the signal
The source made the active and inactive calls. Rule for the calls: active = hit-call score of the fitted dose curve at least 0.9, where 1 is the maximum; inactive = score below 0.9.
Classes used: 1 (yes) = active, 0 (no) = inactive

[[record]]
compound = "NCC(F)(F)C(F)(F)C(F)(F)C(F)(F)C(F)(F)C(F)(F)C(F)(F)C(F)(F)F"
system_name = "Aryl hydrocarbon receptor (Homo sapiens) (UniProt P35869)"
class_label = "0 (no)"

[[record]]
compound = "CCn1c2ccccc2c2ccccc21"
system_name = "Aryl hydrocarbon receptor (Homo sapiens) (UniProt P35869)"
class_label = "0 (no)"

[[record]]
compound = "CC(C)=CCCC(C)O (configuration not stated)"
system_name = "Aryl hydrocarbon receptor (Homo sapiens) (UniProt P35869)"
class_label = "0 (no)"

[[record]]
compound = "CC(C)(C)c1cc(CCC(=O)OCC(COC(=O)CCc2cc(C(C)(C)C)c(O)c(C(C)(C)C)c2)(COC(=O)CCc2cc(C(C)(C)C)c(O)c(C(C)(C)C)c2)COC(=O)CCc2cc(C(C)(C)C)c(O)c(C(C)(C)C)c2)cc(C(C)(C)C)c1O"
system_name = "Aryl hydrocarbon receptor (Homo sapiens) (UniProt P35869)"
class_label = "0 (no)"

[[record]]
compound = "O=S(=O)(OCC(F)(F)F)C(F)(F)C(F)(F)C(F)(F)C(F)(F)F"
system_name = "Aryl hydrocarbon receptor (Homo sapiens) (UniProt P35869)"
class_label = "0 (no)"

[[record]]
compound = "Brc1ccccn1"
system_name = "Aryl hydrocarbon receptor (Homo sapiens) (UniProt P35869)"
class_label = "0 (no)"

[[record]]
compound = "CCCCCC/C=C/CCCCCCCC(=O)O"
system_name = "Aryl hydrocarbon receptor (Homo sapiens) (UniProt P35869)"
class_label = "0 (no)"

[[record]]
compound = "CCc1cccc(C)c1N(C(=O)C(=O)O)C(C)COC (configuration not stated)"
system_name = "Aryl hydrocarbon receptor (Homo sapiens) (UniProt P35869)"
class_label = "0 (no)"

[[record]]
compound = "O=C(O)C(F)(F)C(F)(F)C(F)(F)C(F)(F)C(F)(F)C(F)(F)C(F)F"
system_name = "Aryl hydrocarbon receptor (Homo sapiens) (UniProt P35869)"
class_label = "0 (no)"

[[record]]
compound = "CCCCCCCCCCCCC[N+](C)(C)Cc1ccccc1"
system_name = "Aryl hydrocarbon receptor (Homo sapiens) (UniProt P35869)"
class_label = "0 (no)"

[[record]]
compound = "CCCCCCCCCc1ccc(OCCO)cc1"
system_name = "Aryl hydrocarbon receptor (Homo sapiens) (UniProt P35869)"
class_label = "0 (no)"

[[record]]
compound = "CC1=CCC2C(=O)OC(=O)C2C1 (configuration not stated)"
system_name = "Aryl hydrocarbon receptor (Homo sapiens) (UniProt P35869)"
class_label = "1 (yes)"

